Values compiled from PubChem BioAssay.

tested on: TRPC4 (mouse), co-expressed with 5HT1a in HEK293; experiment: enhancement of serotonin-evoked TRPC4 response – cell-based, second counter screen, HEK293 TRPC4/5HT1a, Fluo-4, counter-screen for TRPC4 potentiator project, confirmation (AID 434979); conditions: Fluo-4 calcium flux, at 10 µM, serotonin added at its EC20 dose; hits give high values
Calls of active or inactive are those of the source.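 How the source made its calls: active means signal rise over 3 SD above mean of control wells given weak agonist, in both repeats and first screen; inactive means the rest.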
measuredAttribute: potentiation

Here are 5 compounds together with their reported answers.
{"compound": "Cc1cc(OCCN2CCCC2)ccc1[N+](=O)[O-]", "potentiation": "13.9% (active)"}
{"compound": "Cc1cc(OCCN2CCCCC2)nc2ccccc12", "potentiation": "13.7% (active)"}
{"compound": "O=[N+]([O-])c1cccc(N(CC(O)CN2CCCC2)S(=O)(=O)c2ccccc2)c1 (configuration not stated)", "potentiation": "inactive"}
{"compound": "CC(C)(C)NCc1cc(Cl)ccc1OCc1cccs1", "potentiation": "inactive"}
{"compound": "CCN1CCCC1CNCc1ccc(Cl)cc1Cl (configuration not stated)", "potentiation": "12.9% (active)"}

Provide each entry's potentiation from the list below.
1. COc1cccc(OCC(=O)NC2CCCCC2)c1
2. CCc1cc(C(c2cccc(OC)c2)N2CCOCC2)c(NC(=O)c2ccccc2)s1 (configuration not stated)

Reply:
["26.3% (active)", "inactive"]

====

test system: TRPC4 (mouse), co-expressed with 5HT1a in HEK293; assay: enhancement of serotonin-evoked TRPC4 response – cell-based, second counter screen, HEK293 TRPC4/5HT1a, Fluo-4, counter-screen for TRPC4 potentiator project, confirmation (AID 434979); details: Fluo-4 calcium flux, at 10 µM, serotonin added at its EC20 dose
Activity calls are given as the source filed them.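 The calls were made as follows: active = signal rise over 3 SD above mean of control wells given weak agonist, in both repeats and first screen; inactive = the rest.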
The reply should be one of these categories: YES = active, NO = inactive

Known results for compounds:
{"compound": "Cc1cccc(Cn2c(N3CCN(c4ccccc4)CC3)nc3c2c(=O)n(C)c(=O)n3C)c1", "system": "TRPC4 (mouse), co-expressed with 5HT1a in HEK293", "assignedClass": "YES"}
{"compound": "CC(=O)OCCCN1C(=O)c2cccc3cc(Br)cc(c23)C1=O", "system": "TRPC4 (mouse), co-expressed with 5HT1a in HEK293", "assignedClass": "NO"}
{"compound": "Oc1c(CN2CCCCC2)cc(Br)c2cccnc12", "system": "TRPC4 (mouse), co-expressed with 5HT1a in HEK293", "assignedClass": "NO"}
{"compound": "CCCCNc1nc(-c2ccccc2)c(C(=O)OCC)cc1C#N", "system": "TRPC4 (mouse), co-expressed with 5HT1a in HEK293", "assignedClass": "NO"}
{"compound": "O=C(OCC(=O)N1CCc2ccccc2C1)c1cccc([N+](=O)[O-])c1", "system": "TRPC4 (mouse), co-expressed with 5HT1a in HEK293", "assignedClass": "NO"}

Query: What was the test verdict on COc1ccccc1/C=C/CN1CCCC(CCC(=O)NCc2ccccc2F)C1 (stereo not given) ?
Reply: NO

Query: What was the test verdict on CC[n+]1c(/C=C/Nc2ccccc2)sc2ccccc21 ?
Reply: NO

Query: What was the test verdict on C=C(C)Cn1c(SCC)nc2ccccc2c1=O ?
Reply: NO

Query: What was the test verdict on NCC(c1ccc(Cl)cc1Cl)c1c[nH]c2ccccc12 (stereo not given) ?
Reply: YES

Query: What was the test verdict on Cn1c(=O)c2c(nc(SCCN3CCCCC3)n2Cc2ccccc2)n(C)c1=O ?
Reply: YES

Query: What was the test verdict on CC(=O)c1nn(-c2cccc(Br)c2)cc1C(=O)c1cccc2ccccc12 ?
Reply: NO

====

target: Short transient receptor potential channel 4 (Mus musculus); assay: calcium flux activators in TRPC4/5HT1a cells, counter-screen for TRPC4 activator project, cell-based, second counter screen, HEK293 TRPC4/5HT1a, Fluo-4 (AID 434977); settings: Fluo-4 calcium flux, at 10 µM
Activity calls are given as the source filed them.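 How the source made its calls: active means calcium signal rise above buffer-control mean plus 5 SD in both duplicates, and also a hit in the primary screen; inactive means the rest.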
The reply should be one of these categories: active, inactive

Known results for molecules:
{"molecule": "Cn1c(=O)c2c(nc(CN3CCc4ccccc4C3)n2Cc2ccc(F)cc2)n(C)c1=O", "assignedClass": "inactive"}
{"molecule": "Cc1cc(C)nc(NNS(=O)(=O)c2ccc(F)c(Cl)c2)n1", "assignedClass": "inactive"}
{"molecule": "COc1ccc(C(=O)C2CCCN(C3Cc4ccccc4C3)C2)cc1OC (stereo unspecified)", "assignedClass": "active"}
{"molecule": "Cc1cc(OCC(=O)N(C(C)C)C(C)C)cc(C)c1Br", "assignedClass": "inactive"}
{"molecule": "C=CCN1CCN(C(c2cccc(OC)c2OC)c2nnnn2CCC(C)C)CC1 (stereo unspecified)", "assignedClass": "inactive"}

Query: What was the test verdict on CCn1c(/C=C/Nc2ccccc2)[n+](CC)c2ccc(Cl)cc21 ?
Reply: inactive

====

system: transient receptor potential cation channel C4 beta (TRPC4), mouse; experiment: TRPC4 cation channel opening, second retest – cell-based, second round, Fluo4, HEK293 TRPC4beta/mu-opioid, 1 µM, confirmation (AID 2461); settings: Fluo4 calcium fluorescence, at 1 µM; hits give high values;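 on activation: 0% = wells without test compound as baseline of integrated fluorescence ratio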
Activity calls are given as the source filed them.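 How the source made its calls: active means primary screen active and over 50% activation in each of two duplicate runs; inactive means the rest.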
measuredAttribute: activation

Here are 5 molecules together with their reported answers.
{"molecule": "Cc1sc2ncnc(SCC(=O)N(C)C3CCS(=O)(=O)C3)c2c1C (stereo unspecified)", "activation": "inactive"}
{"molecule": "Cc1ccc(NC(=S)NC2CC3CCC(C2)N3Cc2ccco2)c(C)c1 (stereo unspecified)", "activation": "inactive"}
{"molecule": "Cc1ccc(-n2c(C)cc(C)c(C#N)c2=O)cc1Cl", "activation": "inactive"}
{"molecule": "CCN1CCCC1CNC(=O)c1cc2c(OC)cccc2[nH]1 (stereo unspecified)", "activation": "inactive"}
{"molecule": "CCOC(=O)c1cnc(-n2nc(C)cc2C)nc1NC1CCCCC1", "activation": "inactive"}

Below: the item to evaluate.
Query: Fill blank: measured activation of the molecule Cc1ccccc1NC(=S)NCC(c1cccnc1)N(C)C (stereo unspecified) is ____.
Reply: 111% (active)

====

biological target: Inward rectifier potassium channel 2 (Mus musculus) (UniProt P35561); experiment: inhibition of Kir2.1 inward rectifier potassium flux – cell-based, FluxOR thallium flux, duplicate, confirmation (AID 2032); conditions: Kir2.1-expressing cells, FluxOR thallium flux fluorescence, at 10 µM
Sequence (P35561 whole entry, looked up): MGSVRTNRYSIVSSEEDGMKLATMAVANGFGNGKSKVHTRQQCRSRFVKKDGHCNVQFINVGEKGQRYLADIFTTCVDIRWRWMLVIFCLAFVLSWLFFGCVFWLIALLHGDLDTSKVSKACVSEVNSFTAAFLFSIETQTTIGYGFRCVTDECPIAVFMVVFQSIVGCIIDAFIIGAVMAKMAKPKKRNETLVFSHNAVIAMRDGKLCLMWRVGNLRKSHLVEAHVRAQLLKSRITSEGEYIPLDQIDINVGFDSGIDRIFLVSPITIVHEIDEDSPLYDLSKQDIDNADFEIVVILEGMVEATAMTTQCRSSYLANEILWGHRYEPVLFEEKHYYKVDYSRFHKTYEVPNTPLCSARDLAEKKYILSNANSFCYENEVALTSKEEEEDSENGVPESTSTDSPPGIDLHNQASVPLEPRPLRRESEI
The other results are listed elsewhere or left out. Active and inactive are the calls of the source.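 How the source made its calls: active means Primary-screen hit whose thallium flux fell at least 3 control SD below untreated wells in both duplicates, with normal baseline fluorescence; inactive means the rest.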
The reply should be one of these categories: active, inactive

Known results for molecules:
{"molecule": "CC1COc2ccccc2N1S(=O)(=O)c1ccccc1 (stereo not drawn)", "assignedClass": "active"}
{"molecule": "NC(N)=Nc1nc(-c2ccccc2)c2cc(Cl)ccc2n1", "assignedClass": "inactive"}
{"molecule": "COc1cc(/C=N/O)cc(Br)c1OS(=O)(=O)c1ccc(C)cc1", "assignedClass": "active"}
{"molecule": "Cc1cccc(NC(=O)c2nc(S(=O)(=O)Cc3ccccc3)ncc2Cl)c1", "assignedClass": "inactive"}
{"molecule": "O=C(Nc1ccccc1Cl)/C(Cl)=C(\\Cl)S(=O)c1ccccc1 (stereo not drawn)", "assignedClass": "active"}

Here's the next entry for you.
Query: What was the test verdict on Cc1ccc(-c2nn(-c3ccccc3)cc2/C=C2\SC(=S)N(CCCCCC(=O)O)C2=O)o1 ?
Reply: inactive

====

biological target: Short transient receptor potential channel 4 (Mus musculus) (UniProt Q9QUQ5); test: blockers of DAMGO-evoked TRPC4 calcium flux – cell-based, second round, Fluo4, HEK293 TRPC4beta/mu-opioid, 1 µM, confirmation (AID 2637); conditions: at 1 µM; hits give high values;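 on inhibition: percent of integrated ratio relative to wells lacking test compound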
Sequence (Q9QUQ5 whole entry, looked up): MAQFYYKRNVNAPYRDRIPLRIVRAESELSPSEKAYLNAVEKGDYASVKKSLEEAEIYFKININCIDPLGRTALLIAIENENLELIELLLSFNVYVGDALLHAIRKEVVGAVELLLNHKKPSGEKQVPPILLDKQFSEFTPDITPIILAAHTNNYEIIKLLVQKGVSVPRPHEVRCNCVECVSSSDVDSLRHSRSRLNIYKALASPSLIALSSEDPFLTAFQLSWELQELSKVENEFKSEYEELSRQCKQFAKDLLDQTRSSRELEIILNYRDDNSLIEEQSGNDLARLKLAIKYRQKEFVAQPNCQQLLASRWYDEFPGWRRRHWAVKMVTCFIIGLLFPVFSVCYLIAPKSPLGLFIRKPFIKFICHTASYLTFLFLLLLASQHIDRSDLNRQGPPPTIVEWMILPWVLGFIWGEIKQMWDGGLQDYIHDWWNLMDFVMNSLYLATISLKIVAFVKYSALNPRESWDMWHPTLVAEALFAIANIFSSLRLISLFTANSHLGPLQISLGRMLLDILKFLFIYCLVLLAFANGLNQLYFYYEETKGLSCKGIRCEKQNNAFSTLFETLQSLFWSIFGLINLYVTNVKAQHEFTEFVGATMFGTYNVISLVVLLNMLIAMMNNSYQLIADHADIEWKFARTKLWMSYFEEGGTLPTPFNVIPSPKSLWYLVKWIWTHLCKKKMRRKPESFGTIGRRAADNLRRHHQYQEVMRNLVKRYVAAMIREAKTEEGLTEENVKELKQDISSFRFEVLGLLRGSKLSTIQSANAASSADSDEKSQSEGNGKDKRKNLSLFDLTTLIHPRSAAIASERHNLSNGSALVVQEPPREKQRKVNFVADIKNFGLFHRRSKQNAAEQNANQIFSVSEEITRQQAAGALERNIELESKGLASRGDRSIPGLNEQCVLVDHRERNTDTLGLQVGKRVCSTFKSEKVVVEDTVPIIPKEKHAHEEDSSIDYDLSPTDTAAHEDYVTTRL
Calls of active or inactive are those of the source.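 How the source made its calls: active means calcium signal ratio cut to more than 3 SD under the fully stimulated control mean yet still positive, in both repeats and the primary screen; inactive means the rest.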
measuredAttribute: inhibition

{"compound": "CCc1cc(OCCN(C)C)ccc1Cl", "inhibition": "inactive"}
{"compound": "C=CCSc1nc2c(c(=O)[nH]c(=O)n2C)n1C/C=C(/C)Cl", "inhibition": "57% (active)"}
{"compound": "CCOc1ccc2ccccc2c1CNCCc1ccc(S(N)(=O)=O)cc1", "inhibition": "inactive"}
{"compound": "O=C(CSc1nc(=O)n(CCN2CCOCC2)c2c1CCC2)Nc1ccc(OC(F)(F)F)cc1", "inhibition": "inactive"}
{"compound": "Cc1ccc(C)c2[nH]c(=O)c(C(c3nnnn3C3CCCC3)N3CCOCC3)cc12 (stereo unspecified)", "inhibition": "inactive"}
{"compound": "COc1ccc(C(CNC(=O)c2ccccc2SC)N(C)C)cc1 (stereo unspecified)", "inhibition": "inactive"}

Provide each entry's inhibition from the list below.
1. CCCCCCc1cc2cc(-c3nnc(-c4ccccc4O)o3)c(=O)oc2cc1O
2. CCSc1ccccc1C(=O)NCCc1ccccc1

Reply:
inactive
inactive

====

biological target: Short transient receptor potential channel 4 (Mus musculus); test: blockers of DAMGO-evoked TRPC4 calcium flux – cell-based, second round, Fluo4, HEK293 TRPC4beta/mu-opioid, 1 µM, confirmation (AID 2637); details: at 1 µM; hits give high values;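 on inhibition: percent of integrated ratio relative to wells lacking test compound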
Activity calls are given as the source filed them.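 Rule for the calls: active = calcium signal ratio cut to more than 3 SD under the fully stimulated control mean yet still positive, in both repeats and the primary screen; inactive = the rest.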
measuredAttribute: inhibition

Here are 8 molecules together with their reported answers.
{"molecule": "O=C(NCCN1CCOCC1)c1cc2sccc2n1Cc1ccc(F)cc1", "inhibition": "49% (active)"}
{"molecule": "CCCN(CCC)CCCNC(=O)c1ccc2c(Cl)c3c(nc2c1)CCC3", "inhibition": "inactive"}
{"molecule": "O=C1COc2ccc(N3C(=O)C=CC3=O)cc2N1", "inhibition": "inactive"}
{"molecule": "CCN1CCN(C(=O)c2cc(-c3ccc(Cl)s3)nc3ccccc23)CC1", "inhibition": "inactive"}
{"molecule": "CC1CCN(C(C)C(=O)Nc2ccccc2-c2ccccc2)CC1 (centres undefined)", "inhibition": "36% (active)"}
{"molecule": "CN1CCCN(Cc2cccc3ccccc23)CC1", "inhibition": "inactive"}
{"molecule": "CSc1ccccc1OC1CCN(Cc2ccccc2)CC1", "inhibition": "inactive"}
{"molecule": "CC1(C(=O)NC(=S)NNC(=O)c2ccncc2)CCCCC1", "inhibition": "inactive"}

Provide each entry's inhibition from the list below.
1. Cn1c(-c2ccccc2)cnc1NCc1ccc(F)cc1
2. CN(C)C(CNC(=S)Nc1ccc(Cl)cc1)c1cccnc1 (centres undefined)
3. O=C(COc1ccc(F)cc1)c1c(O)cc(O)cc1O
4. CN(C)C(CNC(=O)NC1CCCCC1)c1cccnc1 (centres undefined)
5. Cc1cc(Cl)ccc1OC(C)C(=O)Nc1ccccc1N1CCOCC1 (centres undefined)

Reply:
1. 53% (active)
2. inactive
3. inactive
4. inactive
5. inactive

Provide each entry's inhibition from the list below.
1. Clc1cc(/C=N\NC2=NCCN2)cc(Cl)n1
2. CN(C)CCCN(C(=O)c1ccc(S(=O)(=O)N2CCCCCC2)cc1)c1nc2c(F)cc(F)cc2s1
3. CCOc1ccc(S(=O)(=O)N2CCN(C(=S)NC3CC3)CC2)cc1
4. Cc1ccc(NS(=O)(=O)c2cc(N)ccc2Cl)c(C)c1
5. Cc1oc(-c2ccoc2)nc1CN(Cc1ccccc1)CC1CC1
6. Cc1cc(OCC(=O)N2CCCC2)cc(C)c1Cl
7. Cc1cc(OCCN2CCCC2)ccc1[N+](=O)[O-]
8. COc1ccc(S(=O)(=O)N2CCCCCC2)cc1C(=O)N(C)Cc1ccc(Cl)cc1Cl

Reply:
inactive
inactive
inactive
inactive
inactive
inactive
inactive
inactive

Provide each entry's inhibition from the list below.
1. Cc1nn(C(=O)CNS(=O)(=O)c2ccccc2)c(C)c1Sc1ccc(Cl)cc1
2. COc1ccc(CN2CCC(N(CCc3ccccc3)Cc3ccccc3)CC2)c(OC)c1

Reply:
62% (active)
inactive

Query: Fill blank: measured inhibition of the molecule Cc1cc2nc3s/c(=C/c4ccc(-c5ccccc5C(=O)O)o4)c(=O)n3c2cc1C is ____.
Reply: inactive
